FYI, the data here is from PubChem BioAssay AID504652.

biological target: D(1A) dopamine receptor (Homo sapiens) (UniProt P21728); test: Antagonist of Human D 1 Dopamine Receptor: qHTS; details: HEK293 TREx D1 cells, calcium flux, dopamine EC80; at 10 µM; stronger effect = lower value; also: % is scaled to controls: 0 for no effect and ±100 for the full control effect
Sequence (P21728 whole entry, looked up): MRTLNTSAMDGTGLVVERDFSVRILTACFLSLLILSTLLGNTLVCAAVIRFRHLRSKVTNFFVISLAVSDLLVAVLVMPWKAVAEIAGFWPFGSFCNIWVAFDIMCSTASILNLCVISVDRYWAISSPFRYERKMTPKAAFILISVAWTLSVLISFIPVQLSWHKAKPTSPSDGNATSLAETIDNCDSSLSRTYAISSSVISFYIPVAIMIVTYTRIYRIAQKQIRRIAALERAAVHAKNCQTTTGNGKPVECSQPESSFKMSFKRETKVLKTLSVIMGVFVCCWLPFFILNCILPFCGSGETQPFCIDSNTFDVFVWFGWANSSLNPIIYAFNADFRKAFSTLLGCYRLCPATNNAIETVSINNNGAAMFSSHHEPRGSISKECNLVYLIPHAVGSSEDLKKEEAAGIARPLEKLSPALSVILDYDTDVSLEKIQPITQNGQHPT
Among all 360,000 compounds or so, about 11,000 (3.1%) were called active. For the sample, actives were picked, then their nearest neighbours and some compounds at random.
measure: activity change, negative = inhibition (%)
Number in %, nothing else.

Value of measured activity change, negative = inhibition for the entry COc1cc(COCC(O)CN2CCN(Cc3ccc4c(c3)OCO4)CC2)cc(OC)c1OC (stereo not given) : -31.1

Value of measured activity change, negative = inhibition for the entry O=C(CCc1nc(CN2CCN(S(=O)(=O)c3ccc(Cl)cc3)CC2)no1)N1CCCCC1 : -4.7

Value of measured activity change, negative = inhibition for the entry Cc1ccc(OCC(=O)OC(C)CN(C)Cc2ccccc2)cc1 (stereo not given) : -3.69

Value of measured activity change, negative = inhibition for the entry CCc1cccc(C)c1Nc1c(-c2ccc(N(C)C)cc2)nc2ncccn12 : 6.48

Value of measured activity change, negative = inhibition for the entry COc1ccc(N2C(=O)CS(=O)(=O)C23C(=O)N(Cc2ccc(C)cc2)c2ccccc23)cc1Cl (stereo not given) : -16
